# protocol_details: Plasma stability of payloads and linker-payloads, human plasma
# Assay type: in vitro ADME
# test_parameters: human, pooled plasma, pH 7.4; payload properties table; species not given; read-out: Plasma stability t½ (converted)
Where a SMILES comes first, the peptide text is derived from it. [ ]: non-standard residue; d: D form. The star is where a group is joined. Bip(2'-Et,4'-O(CH2)4NH2) = CCc1cc(OCCCCN)ccc1-c1ccc(C[C@H](N)C(=O)O)cc1; Nva(5-(3,5-Me2Ph)) = Cc1cc(C)cc(CCC[C@H](N)C(=O)O)c1; Ala(1H-tetrazol-5-yl) = N[C@@H](Cc1nnn[nH]1)C(=O)O; αMePhe(2-F) = C[C@](N)(Cc1ccccc1F)C(=O)O; X1 = O=C(CCCCCc1cnc[nH]1)*; Aib = CC(C)(N)C(=O)O
metric: half-life at 2 µM

compound	metric	observed_measurement
CCc1cc(OCCCCN)ccc1-c1ccc(C[C@H](NC(=O)[C@H](CC(=O)O)NC(=O)[C@H](CO)NC(=O)[C@@H](NC(=O)[C@](C)(Cc2ccccc2F)NC(=O)[C@@H](NC(=O)CNC(=O)[C@H](Cc2nn[nH]n2)NC(=O)CCCCCc2cnc[nH]2)[C@@H](C)O)[C@@H](C)O)C(=O)N[C@@H](CCCc2cc(C)cc(C)c2)C(N)=O)cc1 [P11] (X1-[Ala(1H-tetrazol-5-yl)]GT[αMePhe(2-F)]TSD[Bip(2'-Et,4'-O(CH2)4NH2)][Nva(5-(3,5-Me2Ph))]-NH2)	half-life at 2 µM	> 57.8 h
CCc1cc(OCCCCN)ccc1-c1ccc(C[C@H](NC(=O)[C@H](CC(=O)O)NC(=O)[C@H](CO)NC(=O)[C@@H](NC(=O)[C@](C)(Cc2ccccc2F)NC(=O)[C@@H](NC(=O)CNC(=O)[C@H](Cc2nn[nH]n2)NC(=O)C(C)(C)NC(=O)[C@@H](N)Cc2ccc(O)cc2)[C@@H](C)O)[C@@H](C)O)C(=O)N[C@@H](CCCc2cc(C)cc(C)c2)C(N)=O)cc1 [P19] (H-Y[Aib][Ala(1H-tetrazol-5-yl)]GT[αMePhe(2-F)]TSD[Bip(2'-Et,4'-O(CH2)4NH2)][Nva(5-(3,5-Me2Ph))]-NH2)	half-life at 2 µM	> 57.8 h

----------
# target_under_test: human GLP1R (Homo sapiens (Human))
# Sequence (P43220 24-463): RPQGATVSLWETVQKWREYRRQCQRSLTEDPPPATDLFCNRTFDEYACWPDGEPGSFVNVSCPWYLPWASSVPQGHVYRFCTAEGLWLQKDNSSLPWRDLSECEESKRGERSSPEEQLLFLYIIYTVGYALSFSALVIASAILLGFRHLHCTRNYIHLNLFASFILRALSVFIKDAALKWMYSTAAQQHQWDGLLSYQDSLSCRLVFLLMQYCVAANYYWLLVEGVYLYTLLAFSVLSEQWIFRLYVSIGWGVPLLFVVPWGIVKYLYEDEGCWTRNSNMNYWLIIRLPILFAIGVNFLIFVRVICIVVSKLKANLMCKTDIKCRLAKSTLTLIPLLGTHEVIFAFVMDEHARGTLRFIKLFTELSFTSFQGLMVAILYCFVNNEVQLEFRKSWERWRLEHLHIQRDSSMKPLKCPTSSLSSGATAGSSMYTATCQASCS
# protocol_details: cAMP responsive luciferase reporter assay, HEK293/CRE-Luc/hGLP1R cells
# Assay type: cell-based
# test_parameters: relative to P8 of the same experiment
Where a SMILES comes first, the peptide text is derived from it. [ ]: non-standard residue; d: D form. The star is where a group is joined. Bip(2'-Et,4'-O(CH2)4NH2) = CCc1cc(OCCCCN)ccc1-c1ccc(C[C@H](N)C(=O)O)cc1; Nva(5-(3,5-Me2Ph)) = Cc1cc(C)cc(CCC[C@H](N)C(=O)O)c1; Ala(1H-tetrazol-5-yl) = N[C@@H](Cc1nnn[nH]1)C(=O)O; αMePhe(2-F) = C[C@](N)(Cc1ccccc1F)C(=O)O; Desaminohistidyl = O=C(CCc1c[nH]cn1)*; X2 = CC(C)(C(N)=O)C(=O)*
HEK293/CRE-LUC/hGLP1R Relative Potency (% P8 EC50) for assorted compounds
metric: HEK293/CRE-LUC/hGLP1R Relative Potency (% P8 EC50) (%)

compound	observed_measurement
CCc1cc(OCCCCn2cc(COCCOCCOCCOCCOCCOCCOCCOCCN)nn2)ccc1-c1ccc(C[C@H](NC(=O)[C@H](CC(=O)O)NC(=O)[C@H](CO)NC(=O)[C@@H](NC(=O)C(C)(Cc2ccccc2F)NC(=O)[C@@H](NC(=O)CNC(=O)[C@H](Cc2nn[nH]n2)NC(=O)C(C)(C)C(=O)NCCc2cnc[nH]2)[C@@H](C)O)[C@@H](C)O)C(=O)N[C@@H](CCCc2cc(C)cc(C)c2)C(N)=O)cc1 (some centres unmarked)	33.1
CCc1cc(OCCCCN)ccc1-c1ccc(C[C@H](NC(=O)[C@H](CC(=O)O)NC(=O)[C@H](CO)NC(=O)[C@@H](NC(=O)[C@](C)(Cc2ccccc2F)NC(=O)[C@@H](NC(=O)CNC(=O)[C@H](Cc2nn[nH]n2)NC(=O)CNC(=O)CCc2c[nH]cn2)[C@@H](C)O)[C@@H](C)O)C(=O)N[C@@H](CCCc2cc(C)cc(C)c2)C(N)=O)cc1 [P12] (Desaminohistidyl-G[Ala(1H-tetrazol-5-yl)]GT[αMePhe(2-F)]TSD[Bip(2'-Et,4'-O(CH2)4NH2)][Nva(5-(3,5-Me2Ph))]-NH2)	46.5
CCc1cc(OCCCCN)ccc1-c1ccc(C[C@H](NC(=O)[C@H](CC(=O)O)NC(=O)[C@H](CO)NC(=O)[C@@H](NC(=O)[C@](C)(Cc2ccccc2F)NC(=O)[C@@H](NC(=O)CNC(=O)[C@H](Cc2nn[nH]n2)NC(=O)C(C)(C)C(N)=O)[C@@H](C)O)[C@@H](C)O)C(=O)N[C@@H](CCCc2cc(C)cc(C)c2)C(N)=O)cc1 [P4] (X2-[Ala(1H-tetrazol-5-yl)]GT[αMePhe(2-F)]TSD[Bip(2'-Et,4'-O(CH2)4NH2)][Nva(5-(3,5-Me2Ph))]-NH2)	6.3
CCc1cc(OCCCCN)ccc1-c1ccc(C[C@H](NC(=O)[C@H](CC(=O)O)NC(=O)[C@H](CO)NC(=O)[C@@H](NC(=O)[C@](C)(Cc2ccccc2F)NC(=O)[C@@H](NC(=O)CNC(=O)[C@H](CCC(N)=O)NC(=O)C(C)(C)C(=O)NCCc2cnc[nH]2)[C@@H](C)O)[C@@H](C)O)C(=O)N[C@@H](CCCc2cc(C)cc(C)c2)C(N)=O)cc1	0.7
CCc1cc(OCCCCN)ccc1-c1ccc(C[C@H](NC(=O)[C@H](CC(=O)O)NC(=O)[C@H](CO)NC(=O)[C@@H](NC(=O)[C@](C)(Cc2ccccc2F)NC(=O)[C@@H](NC(=O)CNC(=O)[C@H](Cc2nn[nH]n2)NC(=O)[C@H](C)NC(=O)[C@H](Cc2c[nH]cn2)NC(=O)[C@@H](N)CCC(N)=O)[C@@H](C)O)[C@@H](C)O)C(=O)N[C@@H](CCCc2cc(C)cc(C)c2)C(N)=O)cc1 [P13] (H-QHA[Ala(1H-tetrazol-5-yl)]GT[αMePhe(2-F)]TSD[Bip(2'-Et,4'-O(CH2)4NH2)][Nva(5-(3,5-Me2Ph))]-NH2)	1.5
